- Test system: DERL-7 (IL-2 2.5 ng/mL);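 further: normalised to DMSO-only wells as negative and benzethonium chloride as positive control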
- test-name: percent inhibition of viability; higher = more inhibition
- condition-label: 72 h; 10 nM

{"columns": ["compound", "percent inhibition of viability"],
 "data": [
  ["CN(C)c1nc(N(C)C)nc(N(C)C)n1 [Altretamine] (max concentration tested 10000 nM)", "-2.77%"],
  ["O=C(Nc1cccc(Cl)c1)Nc1ncc(CCNc2ncnc3ccsc23)s1 [SNS-314] (max concentration tested 1000 nM)", "3.21%"],
  ["CC1=C(/C=C/C(C)=C/C=C/C(C)=C/C(=O)O)C(C)(C)CCC1 [Tretinoin] (max concentration tested 10000 nM)", "-9.97%"],
  ["O=C(Nc1ccc2[nH]nc(-c3ccncc3)c2c1)[C@@H]1CCN(CC(=O)N2CCN(c3ccc(-c4ncccn4)cc3)CC2)C1 (max concentration tested 10000 nM)", "5.53%"],
  ["Cn1c(=O)c(F)c(Nc2ccc(I)cc2F)c2c(=O)n(C[C@@H](O)CO)cnc21 [TAK-733] (max concentration tested 1000 nM)", "23%"],
  ["COc1ncc(-c2ccc3nccc(-c4ccnnc4)c3c2)cc1NS(=O)(=O)c1ccc(F)cc1F [Omipalisib] (max concentration tested 1000 nM)", "45.5%"],
  ["O=c1cc(N2CCOCC2)oc2c(-c3ccccc3)cccc12 (max concentration tested 100000 nM)", "0.77%"]
]}
